Data provenance is patent US12129308B2.

Test: thermal shift assay (TSA)
Assay type: physicochemical
Settings: pH 7, monovalent Nanobodies
Protocol: TSA was carried out with 5 μl of purified monovalent Nanobodies in essence according to Ericsson et al. (2006 Anals of Biochemistry, 357: 289-298). The thermal stability of the wildtype anti-MMP13 Nanobodies was investigated in a thermal shift assay (TSA).
Outcome Measure: Tm at pH 7 (°C)
Note: unit °C is implicit; provide only the numeric part.

A selection of reference data follows.
>  <Molecule>
529C12: anti-MMP13 Nanobody, profile 2, SEQ ID NO: 9 (protein) VHH: DVQLVESGGGLVQPGGSLRLSCVASGSIFSINAMGWYRQAPGKQRELVAAISSGGSTYYADSVKGRFTISRDNSKNTVYLQMNSLRPEDTAVYYCNAAVDASRGLPYELYYYWGQGTLVTVSS

>  <Unit Descriptor>
°C

>  <Tm at pH 7>
82.7

$$$$
>  <Molecule>
80A01: anti-MMP13 Nanobody, profile 2, SEQ ID NO: 12 (protein) VHH: EVQLVESGGGLVQPGGSLRLSCAASGFTLAYYSIGWFRQAPGKEREGVSCISSGIDGSTYYADSVKGRFTISRDNAKNTMYLQMNNLKPEDTGVYYCAADPSHYYSEYDCGYYGMDYWGKGTLVTVSS

>  <Unit Descriptor>
°C

>  <Tm at pH 7>
68.6

$$$$

As a next step, examine the molecule that follows.
Recorded result, 40E09: anti-MMP13 Nanobody, profile 1, SEQ ID NO: 1 (protein) VHH: EVQLVESGGGSVQAGGSLRLSCAASGSTFSRYSMNWYRQAPGKQREFVAGISVGRITNYAVSVRGRFTISRDNAEGTGYLQMNSLKPEDTAVYYCNAGGLQGYWGLGTQVTVSS , Tm at pH 7: 68.6
